- protocol-text: anthelmintic activity against nematode growth – whole organism, log2 fold change (AID 1259336);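 further: growth scored by imaging after five days at 20 °C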
- condition-details: C. elegans growth, anthelmintic screen
Activity calls are given as the source filed them. No stated cut-off is given here; in the data, active means log2 fold change growth below about -1.8; inactive means the rest.
Outcomes: active, inactive

line-notation | discrete-label
NS(=O)(=O)c1cncc(-c2ccc3nccc(-c4cn[nH]c4)c3n2)c1 | inactive
c1ccc(Oc2ccc(-c3cc(N4CCNCC4)n[nH]3)cc2)cc1 | inactive
CCCn1c(CNc2ccccc2O)nc2ccccc21 | inactive
O=C(NCCc1c[nH]c2ccccc12)c1cc2ccccc2oc1=O | inactive
Nc1nc(N)c2c3c(sc2n1)CN(Cc1ccccc1)CC3 | inactive
CC(C)(C)c1ccc(N[C@@H]2CCCC[C@H]2NC(=O)c2ccco2)cc1 | inactive
COC(=O)C1=C(C)NC(C)=C(C(=O)OC(C)C)[C@H]1c1cccc2nonc12 | active
O=C(Nc1ccc(N2CCNCC2)nc1)c1oc(-c2ccccc2)nc1C(F)(F)F | inactive
CCn1cnc2c(Nc3cc(F)cc(F)c3)nc(C#N)nc21 | inactive
Nc1ncnc2c1ncn2C[C@@H](O)[C@@H](O)C(=O)O | inactive
NC(=O)c1cc(Br)ccc1OCCOc1ccccc1 | inactive

----------
Measured log2 fold change growth of individual entries
- protocol-text: anthelmintic activity against nematode growth – whole organism, log2 fold change (AID 1259336);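 further: growth scored by imaging after five days at 20 °C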
- condition-details: C. elegans growth, anthelmintic screen; active compounds read low
The source made the active and inactive calls. Cut-off read from the data, not from the text of the source: active = log2 fold change growth below about -1.8; inactive = the rest.

line-notation | log2 fold change growth
CC(=O)NC[C@H]1CN(c2ccc(N3CCSCC3)c(F)c2)C(=O)O1 | 0.00512 (inactive)
COc1ccc(C2=NN(C3CCCCCC3)C(=O)C2(C)C)cc1OCCCCOc1ccc(-c2nn[nH]n2)cc1 | -0.216 (inactive)
CC(C)(C)c1cc(C(=O)N2CCN(c3nccnc3C#N)CC2)n(Cc2ccccc2)n1 | -0.0659 (inactive)
CNC(=O)CNc1nc(-c2ccccn2)nc2scc(-c3ccccc3)c12 | 0.152 (inactive)
COc1ccc(Oc2ccc([C@@H](C)N(C)c3ncc4c(N)nc(N)nc4n3)cc2)cc1 | 0.282 (inactive)
O=C(Nc1ccnc(-c2cccnc2)n1)c1cc(C(F)(F)F)cc(C(F)(F)F)c1 | 0.327 (inactive)
COc1cccc(-n2nnnc2S(=O)(=O)Cc2ccccc2)c1 | 0.034 (inactive)
CCOc1ccc2cc(-c3nn(C(C)(C)C)c(N)c3C(N)=O)cnc2c1 | -0.647 (inactive)
O=C(NC1CC1)c1ccc(N2CCOc3ccc(Cl)cc32)s1 | -0.614 (inactive)
c1ccc(-c2cc(N3CCCCC3)c3ccccc3n2)nc1 | -1.36 (inactive)
COc1cc(NC(=O)Cc2nn(C)c(=O)c3ccccc23)ccc1Cl | 0.419 (inactive)
O=C(Nc1ccc(C(F)(F)F)c(C(F)(F)F)c1)c1cc(Cl)ccc1O | 0.513 (inactive)
O=C(OCc1ccccc1)N1CCC(c2cc(-c3ccncc3)c(-c3ccc(F)cc3)[nH]2)CC1 | -0.374 (inactive)
O=C(N[C@H](Cc1ccccc1)C(=O)Nc1ccccc1N1CCOCC1)c1cccs1 | 0.306 (inactive)
Cc1ccc2[nH]c([C@H]3CCCNC3)c(-c3ccncc3)c2c1 | 0.649 (inactive)
C[C@@H]1[C@H](O)[C@@H](C)C=CC=CC=CC=CC=CC=CC=C[C@H](O[C@@H]2O[C@H](C)[C@@H](O)[C@H](N)[C@@H]2O)C[C@@H]2O[C@](O)(C[C@@H](O)C[C@@H](O)[C@H](O)CC[C@H](O)C[C@@H](O)CC(=O)O[C@H]1C)C[C@H](O)[C@H]2C(=O)O | 0.0153 (inactive)
O=C(Nc1cccc(Cl)c1)c1cnc(N2CCN(c3ccncc3)CC2)c(Cl)c1 | -0.57 (inactive)
Cc1nc(-c2ccccn2)nc(N2CC[C@H](Cc3ccccc3)C2)c1Cl | -1.52 (inactive)
Cc1ccc(S(=O)(=O)Nc2ccc(CN3CCN(C(=O)c4cccc(C#N)c4)CC3)cc2)cc1 | 0.152 (inactive)
